# TESTED ON: KMT9 (Homo sapiens, UniProt Q9Y5N5)
# Sequence (Q9Y5N5 whole entry): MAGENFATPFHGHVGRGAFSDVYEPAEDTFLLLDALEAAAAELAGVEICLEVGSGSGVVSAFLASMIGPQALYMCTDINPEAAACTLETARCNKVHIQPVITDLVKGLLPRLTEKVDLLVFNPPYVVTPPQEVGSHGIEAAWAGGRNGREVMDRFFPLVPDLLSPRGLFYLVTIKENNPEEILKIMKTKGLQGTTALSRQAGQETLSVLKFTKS
# Sequence (Q9UI30 1-120 isoform Q9UI30-2 partner): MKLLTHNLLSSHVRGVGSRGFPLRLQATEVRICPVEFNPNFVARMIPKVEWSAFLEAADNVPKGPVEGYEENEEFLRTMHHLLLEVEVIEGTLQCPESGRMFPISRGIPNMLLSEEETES
# MEASUREMENT NOTES: Microscale thermophoresis (MST) KMT9 binding
# TEST PARAMETERS: microscale thermophoresis, His-tag labelled KMT9 (20 nM); read-out: MST
pKd: −log10 of the molar value.
MEASUREMENT KIND: pKd

• Nc1ncnc2c1ncn2[C@@H]1O[C@H](CNCCCNCc2ccc3ccccc3c2)[C@@H](O)[C@H]1O = < 6.00

KMT9 (Homo sapiens, UniProt Q9Y5N5) / pKd / CNCCC(=O)N(C)C[C@H]1C[C@@H](n2ccc3c(NC)ncnc32)[C@H](O)[C@@H]1O : value?
< 6.00

KMT9 (Homo sapiens, UniProt Q9Y5N5) / pKd / Nc1ncnc2c1c(Br)cn2[C@@H]1C[C@H](CNCCCNCCc2cccc(F)c2)[C@@H](O)[C@H]1O : value?
7.00 to 8.00

KMT9 (Homo sapiens, UniProt Q9Y5N5) / pKd / CNc1ncnc2c1ccn2[C@@H]1C[C@H](COCCCNCCc2ccccc2)[C@@H](O)[C@H]1O : value?
< 6.00
